Entry source: a melting point compilation (Tetko et al.; mined from patent text by program, amines drawn as free bases though some values may be those of a salt)

Please respond with reported melting point for every item in the list.

Each molecule below has a reported value. Please supply its melting point.
1. O=C(c1ccccc1)c1cccc2c1CCC2C(=O)NO (stereo not given)
2. COc1ccc(-c2n[nH]c3c2Cc2ccccc2-3)cc1
3. COc1cc(CO)ccc1OCc1coc(-c2ccco2)n1

A)
160 °C
247 °C
117 to 118 °C

###

Exercise: state measured melting point for each of the compounds provided.

# example entries with known answers
Compound: COc1ccc2c(c1)Oc1c(cccc1OCc1ccccc1)C2
melting point: 107 to 108 °C
--
Compound: C#CCNc1nc(N(C2CC(C)(C)N(O)C(C)(C)C2)C2CC(C)(C)N(O)C(C)(C)C2)nc(N(C2CC(C)(C)N(O)C(C)(C)C2)C2CC(C)(C)N(O)C(C)(C)C2)n1
melting point: 249 to 252 °C
--
Compound: CC(C)(CO)CNC(=O)c1n[nH]cc1NC(=O)c1ccccn1
melting point: 217 to 218 °C

Below are some compounds; for each one, tell me its melting point.
1. Cc1ccc(S(=O)(=O)NC(=O)C2C(=O)CC(C(C)(C)C)CC2=O)cc1 (stereo not given)
2. CCC(CC1(c2ccc(Cl)c(Cl)c2)CCC1)=NO
3. Cc1ccc(-c2c(Cl)ncn2-c2ccc(S(C)(=O)=O)cc2)cc1
4. O=C(O)CN(CC(=O)O)C(=O)OCC1c2ccccc2-c2ccccc21

A)
["162 to 163 °C", "106 to 110 °C", "182 °C", "213 to 216 °C"]
